- Tested on: Danio rerio larvae (5 dpf)
- assay_info: difference in combined optomotor response to red, green and blue moving lines vs DMSO (percentage points); higher = stronger optomotor response than DMSO
- condition_context: 10 µM; exposure time 6 h
Structures can show the parent of a compound that is named as a salt.
property_label: difference
Number only, please.

CN1CCCC(n2nc(Cc3ccc(Cl)cc3)c3ccccc3c2=O)CC1 (stereo not given) [Azelastine (hydrochloride)]; 3.47

The compound listed as CC(C)CN(C[C@@H](O)[C@H](Cc1ccccc1)NC(=O)O[C@H]1CO[C@H]2OCC[C@H]21)S(=O)(=O)c1ccc(N)cc1 [Darunavir] has a reported difference of 5.61

The compound listed as OCCN(CCO)c1nc(N2CCCCC2)c2nc(N(CCO)CCO)nc(N3CCCCC3)c2n1 [Dipyridamole] has a reported difference of 6.89

###

- Test system: Danio rerio larvae (5 dpf)
- assay_info: difference in habituation to acoustic stimuli vs DMSO (percentage points); higher = more habituation than DMSO
- condition_context: 10 µM; exposure time 6 h
Structures can show the parent of a compound that is named as a salt.
property_label: difference in habituation to acoustic stimuli

Take a look at these entries with their results.
CC1(C)S[C@@H]2[C@H](NC(=O)[C@H](N)c3ccccc3)C(=O)N2[C@H]1C(=O)O [Ampicillin (sodium salt)]; -4.92
Cc1ccc(C(=O)c2ccc(CC(=O)O)n2C)cc1 [Tolmetin (sodium salt hydrate)]; 1.94
CC(C)OC(=O)CCC/C=C\C[C@@H]1[C@@H](CC[C@@H](O)CCc2ccccc2)[C@H](O)C[C@@H]1O; 3.23
CN(CCOc1ccc(CC2SC(=O)NC2=O)cc1)c1ccccn1 (stereo unspecified) [Rosiglitazone (maleate)]; -2.4
COc1ccccc1OCC(O)CN1CCN(CC(=O)Nc2c(C)cccc2C)CC1 (stereo unspecified) [Ranolazine (hydrochloride)]; 3.56
CCc1nn(CCCN2CCN(c3cccc(Cl)c3)CC2)c(=O)n1CCOc1ccccc1 [Nefazodone (hydrochloride)]; -9.41
COc1ccc(OC)c(C(O)CNC(=O)CN)c1 (stereo unspecified) [Midodrine (hydrochloride)]; 0.23
CN(C)c1nc(N(C)C)nc(N(C)C)n1; -1.7
CN[C@H]1CC[C@@H](c2ccc(Cl)c(Cl)c2)c2ccccc21 [Sertraline (hydrochloride)]; -4.17
Clc1ccccc1C(c1ccccc1)(c1ccccc1)n1ccnc1; -10.2

Kindly consider the entry below.
The compound listed as C=C(CC)C(=O)c1ccc(OCC(=O)O)c(Cl)c1Cl has a reported difference in habituation to acoustic stimuli of -1.45

###

- System: Danio rerio larvae (5 dpf)
- assay_info: difference in habituation to acoustic stimuli vs DMSO (percentage points); higher = more habituation than DMSO
- condition_context: 10 µM; exposure time 6 h
Counter-ions that a name gives are not always drawn.
Classify as follows. Reported difference in habituation to acoustic stimuli greater than or equal to -0.7: Fulfilled. Reported difference in habituation to acoustic stimuli below: Not fulfilled.

Would you please look over these solved cases?
OC[C@H]1NC[C@H](O)[C@@H](O)[C@H]1O [1-Deoxygalactonojirimycin (hydrochloride)]; Fulfilled
CCc1cc2c(cc1CC)CC(NC[C@H](O)c1ccc(O)c3[nH]c(=O)ccc13)C2 [Indacaterol]; Fulfilled
CCC(=O)OCC(=O)[C@@]1(OC(=O)CC)[C@H](C)C[C@H]2[C@H]3[C@H]([C@@H](O)C[C@@]21C)[C@@]1(C)C=CC(=O)C=C1C[C@H]3Cl [Alclometasone Dipropionate]; Fulfilled
CC(C)OC(=O)C(C)(C)Oc1ccc(C(=O)c2ccc(Cl)cc2)cc1 [Fenofibrate]; Not fulfilled
Cn1ccnc1S [Methimazole]; Fulfilled
C[C@@H](NCCCc1cccc(C(F)(F)F)c1)c1cccc2ccccc12 [Cinacalcet (hydrochloride)]; Not fulfilled

Query: Entry COc1cc([C@@H]2c3cc4c(cc3[C@@H](O[C@@H]3O[C@@H]5CO[C@@H](c6cccs6)O[C@H]5[C@H](O)[C@H]3O)[C@H]3COC(=O)[C@H]23)OCO4)cc(OC)c1O [Teniposide] : is its difference in habituation to acoustic stimuli no less than -0.7?
Result: Fulfilled
